assay: Activity of Beta-lactamase TEM-10
result.type: log10 of kcat (log10 of the value in s⁻¹)

CC1(C)S[C@@H]2[C@H](NC(=O)Cc3ccccc3)C(=O)N2[C@H]1C(=O)O | 1.71
CC(C)(O/N=C(\C(=O)N[C@@H]1C(=O)N2C(C(=O)[O-])=C(C[n+]3ccccc3)CS[C@H]12)c1csc(N)n1)C(=O)O | 1.23
CO/N=C(\C(=O)N[C@@H]1C(=O)N2C(C(=O)O)=C(COC(C)=O)CS[C@H]12)c1csc(N)n1 | -0.52
C[C@H]1[C@H](NC(=O)/C(=N\OC(C)(C)C(=O)O)c2csc(N)n2)C(=O)N1S(=O)(=O)O | 0.30
Cc1nnc(SCC2=C(C(=O)O)N3C(=O)[C@@H](NC(=O)Cn4cnnn4)[C@H]3SC2)s1 | 1.10
CC1(C)S[C@@H]2[C@H](NC(=O)[C@H](N)c3ccccc3)C(=O)N2[C@H]1C(=O)O | 1.10

---

// reported log10 of Km per item
test: Activity of Beta-lactamase TEM-149 T182M mutant expressed in Escherichia coli HB101
result.type: log10 of Km (log10 of the value in µM)

C[C@H]1[C@H](NC(=O)/C(=N\OC(C)(C)C(=O)O)c2csc(N)n2)C(=O)N1S(=O)(=O)O | 1.43
CC1(C)S[C@@H]2[C@H](NC(=O)Cc3ccccc3)C(=O)N2[C@H]1C(=O)O | -0.15
CC1(C)S[C@@H]2[C@H](NC(=O)[C@H](N)c3ccccc3)C(=O)N2[C@H]1C(=O)O | 1.28
CC(C)(O/N=C(\C(=O)N[C@@H]1C(=O)N2C(C(=O)[O-])=C(C[n+]3ccccc3)CS[C@H]12)c1csc(N)n1)C(=O)O | 1.41
CO/N=C(\C(=O)N[C@@H]1C(=O)N2C(C(=O)O)=C(COC(C)=O)CS[C@H]12)c1csc(N)n1 | 1.51
CCN1CCN(C(=O)N[C@@H](C(=O)N[C@@H]2C(=O)N3[C@@H]2SC(C)(C)[C@@H]3C(=O)O)c2ccccc2)C(=O)C1=O | 0.53
CO/N=C(\C(=O)N[C@@H]1C(=O)N2C(C(=O)[O-])=C(C[N+]3(C)CCCC3)CS[C@H]12)c1csc(N)n1 | 1.48
Cc1nnc(SCC2=C(C(=O)O)N3C(=O)[C@@H](NC(=O)Cn4cnnn4)[C@H]3SC2)s1 | 1.54

---

Below, each of the compounds is paired with its reported Km value.
assay: Activity of Beta-lactamase TEM-149 expressed in Escherichia coli HB101
result.type: Km (µM)

Cc1nnc(SCC2=C(C(=O)O)N3C(=O)[C@@H](NC(=O)Cn4cnnn4)[C@H]3SC2)s1 | 68
CC1(C)S[C@@H]2[C@H](NC(=O)Cc3ccccc3)C(=O)N2[C@H]1C(=O)O | 0.6
CC1(C)S[C@@H]2[C@H](NC(=O)[C@H](N)c3ccccc3)C(=O)N2[C@H]1C(=O)O | 5
CC(C)(O/N=C(\C(=O)N[C@@H]1C(=O)N2C(C(=O)[O-])=C(C[n+]3ccccc3)CS[C@H]12)c1csc(N)n1)C(=O)O | 19
CCN1CCN(C(=O)N[C@@H](C(=O)N[C@@H]2C(=O)N3[C@@H]2SC(C)(C)[C@@H]3C(=O)O)c2ccccc2)C(=O)C1=O | 1.4
CO/N=C(\C(=O)N[C@@H]1C(=O)N2C(C(=O)O)=C(COC(C)=O)CS[C@H]12)c1csc(N)n1 | 43
C[C@H]1[C@H](NC(=O)/C(=N\OC(C)(C)C(=O)O)c2csc(N)n2)C(=O)N1S(=O)(=O)O | 51
CO/N=C(\C(=O)N[C@@H]1C(=O)N2C(C(=O)[O-])=C(C[N+]3(C)CCCC3)CS[C@H]12)c1csc(N)n1 | 16

---

assay: Activity of Beta-lactamase TEM-149 T182M mutant expressed in Escherichia coli HB101
Listing: kcat of selected compounds
result.type: kcat (s⁻¹)

CCN1CCN(C(=O)N[C@@H](C(=O)N[C@@H]2C(=O)N3[C@@H]2SC(C)(C)[C@@H]3C(=O)O)c2ccccc2)C(=O)C1=O | 5
CC(C)(O/N=C(\C(=O)N[C@@H]1C(=O)N2C(C(=O)[O-])=C(C[n+]3ccccc3)CS[C@H]12)c1csc(N)n1)C(=O)O | 8.3
CC1(C)S[C@@H]2[C@H](NC(=O)[C@H](N)c3ccccc3)C(=O)N2[C@H]1C(=O)O | 2.4
CO/N=C(\C(=O)N[C@@H]1C(=O)N2C(C(=O)O)=C(COC(C)=O)CS[C@H]12)c1csc(N)n1 | 0.41

---

test system: Escherichia coli; assay: Antimicrobial activity against Escherichia coli HB101 expressing plasmid encoded TEM-149 T182M mutant by broth macrodilution method; assay type: functional
result.type: MIC

CO/N=C(\C(=O)N[C@@H]1C(=O)N2C(C(=O)[O-])=C(C[N+]3(C)CCCC3)CS[C@H]12)c1csc(N)n1 | < 0.125 µg/mL
C[C@H]1[C@H](NC(=O)/C(=N\OC(C)(C)C(=O)O)c2csc(N)n2)C(=O)N1S(=O)(=O)O [AZTREONAM] | < 0.125 µg/mL
CO/N=C(\C(=O)N[C@@H]1C(=O)N2C(C(=O)O)=C(COC(C)=O)CS[C@H]12)c1csc(N)n1 [CEFOTAXIME] | < 0.125 µg/mL

---

test system: Escherichia coli; test: Antimicrobial activity against Escherichia coli HB101 expressing recombinant plasmid encoded TEM-149 by broth macrodilution method; assay type: functional
Readings of MIC for the listed compounds
result.type: MIC

CCN1CCN(C(=O)N[C@@H](C(=O)N[C@@H]2C(=O)N3[C@@H]2SC(C)(C)[C@@H]3C(=O)O)c2ccccc2)C(=O)C1=O | > 256 mg/L
C[C@H]1[C@H](NC(=O)/C(=N\OC(C)(C)C(=O)O)c2csc(N)n2)C(=O)N1S(=O)(=O)O | > 64 mg/L
CC(C)(O/N=C(\C(=O)N[C@@H]1C(=O)N2C(C(=O)[O-])=C(C[n+]3ccccc3)CS[C@H]12)c1csc(N)n1)C(=O)O | > 64 mg/L
CC1(C)S[C@@H]2[C@H](NC(=O)[C@H](N)c3ccc(O)cc3)C(=O)N2[C@H]1C(=O)O | > 64 mg/L
